The measurements presented in this section are drawn from a melting point compilation (Tetko et al.; mined from patent text by program, amines drawn as free bases though some values may be those of a salt).

Please go through the items and note down their melting point.

INPUT: Return reported melting point; argument: COc1cc(OC)c(C2=NC(NC(=O)c3cc4ccccc4[nH]3)C(=O)N(C)c3ccccc32)c(OC)c1 (centres undefined)
OUTPUT: 297 °C

INPUT: Return reported melting point; argument: COCCc1sc2ncnc(N)c2c1-c1ccc(NS(=O)(=O)c2ccccc2)cc1
OUTPUT: 206 to 208 °C

INPUT: Return reported melting point; argument: COc1cc(NC(=S)NC(=O)c2ccccc2)cc(-c2ccccc2)c1
OUTPUT: 149 °C

INPUT: Return reported melting point; argument: COc1cc(C=CC(=O)OC2CC3CC(OC(=O)C=Cc4cc(OC)c(OC)c(OC)c4)C(C2)N3C)cc(OC)c1OC (centres undefined)
OUTPUT: 53 to 57 °C

INPUT: Return reported melting point; argument: CCOC(=O)c1cnc2cn[nH]c2c1Nc1ccccc1
OUTPUT: 164 to 165 °C

INPUT: Return reported melting point; argument: CN1CCN(c2cccc(NC(=O)c3ccc(-c4ccncc4)cc3)c2)CC1
OUTPUT: 232 to 233 °C

INPUT: Return reported melting point; argument: O=C(/C=C/c1ccc2ccccc2c1)Nc1cc(Cl)ccc1NC(=O)C(F)(F)F
OUTPUT: 179 to 185 °C

INPUT: Return reported melting point; argument: COc1cc(C(=O)O)ccc1NC(=O)OC(C)(C)C
OUTPUT: 176 to 178 °C

INPUT: Return reported melting point; argument: Cc1nccn1-c1cccc(C2=CC(=O)OC(C)(C)O2)c1
OUTPUT: 122 °C
